protocolNotes: self-splicing fitness, log relative to wild type (ln ratio); higher = more splicing; Tetrahymena group I intron in knt gene, E. coli kanamycin selection, DiMSum; sequences stand for … in CUCUCU…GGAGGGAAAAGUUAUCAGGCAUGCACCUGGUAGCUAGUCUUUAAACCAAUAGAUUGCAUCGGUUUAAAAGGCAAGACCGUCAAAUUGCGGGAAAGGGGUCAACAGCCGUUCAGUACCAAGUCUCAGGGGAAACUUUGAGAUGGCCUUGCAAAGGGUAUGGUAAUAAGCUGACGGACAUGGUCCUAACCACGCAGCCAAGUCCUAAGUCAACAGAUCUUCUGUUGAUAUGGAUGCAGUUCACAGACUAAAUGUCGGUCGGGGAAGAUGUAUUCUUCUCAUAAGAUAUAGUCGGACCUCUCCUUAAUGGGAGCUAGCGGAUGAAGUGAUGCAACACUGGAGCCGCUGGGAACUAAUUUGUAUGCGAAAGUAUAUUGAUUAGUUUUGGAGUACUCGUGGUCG;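 also: selection with 25 µg/mL kanamycin versus none on LB agar overnight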
testContext: 30 °C
// reported self-splicing fitness (ln) per item
Lab note: jot down the number only; don't add units.

biopolymerSequence	self-splicing fitness (ln)
CUGCAGCAAUAUUACGAAGG	-2.05
CAUGAGCAAUAUUACGAUCG	-0.0708
CCGGAGCAAUAUUACGUCAC	-3.61
ACCGAGCAAUAUUACGCUAG	-2.62
UGUUAGCAAUAUUACGGAAG	-3.18
UCGGAGCAAUAUUACGUCGG	-1.7
AGGCAGCAAUAUUACGUUGA	-2.42
CGAGAGCAAUAUUACGGUCA	-3.17
CAAAAGCAAUAUUACGACAG	-0.12
GUCCAGCAAUAUUACGCAGC	-0.998

Quick one: self-splicing fitness (ln) for UUUAAGCAAUAUUACGAUCA ? -0.491

Quick one: self-splicing fitness (ln) for GCCGAGCAAUAUUACGUUUG ? -3.75
